# Test system: Staphylococcus aureus 209P
# ASSAY REMARKS: MIC against bacteria (Table I), strain (16)
# Format: cell-based
# TEST PARAMETERS: Staphylococcus aureus, 209P
MEASURED PROPERTY: MIC (µg/mL)
Give just the number in µg/mL; leave the unit off.

Query: MIC; subject: "Cc1cncc(C(=O)N[C@@H](C(=O)N[C@@H]2C(=O)N3C(C(=O)O)=C(CSc4nnc(SCC(=O)O)s4)CS[C@H]23)c2ccccc2)c1O"
1.56

I'd like to know its MIC. The molecule in question is "O=C(O)CCCc1nnc(SCC2=C(C(=O)O)N3C(=O)[C@@H](NC(=O)[C@H](NC(=O)c4cnccc4O)c4ccccc4)[C@H]3SC2)s1"
1.56

Look up MIC for this molecule: "COc1cc(C)ncc1C(=O)N[C@@H](C(=O)N[C@@H]1C(=O)N2C(C(=O)O)=C(CSc3nnc(SCC(=O)O)s3)CS[C@H]12)c1ccccc1"
1.56

Could you tell me which MIC is on file for CC(=O)OCC1=C(C(=O)O)N2C(=O)[C@@H](NC(=O)Cc3cccs3)[C@H]2SC1 [Cephalotin, reference compound] ?
0.19

Could you tell me which MIC is on file for "Nc1nc(SCC(=O)O)cc(SCC2=C(C(=O)O)N3C(=O)[C@@H](NC(=O)[C@H](NC(=O)c4cnccc4O)c4ccccc4)[C@H]3SC2)n1" ?
3.13

Form field: reported MIC of "Cc1cc(O)c(C(=O)N[C@@H](C(=O)N[C@@H]2C(=O)N3C(C(=O)O)=C(CSc4nnc(CC(=O)O)s4)CS[C@H]23)c2ccccc2)cn1"
3.13

----------
# Tested on: Proteus mirabilis IXM OM-19
# ASSAY REMARKS: MIC against bacteria (Table I), strain (3)
# Assay type: cell-based
# TEST PARAMETERS: IXMOM19; (3) Proteus mirabilis IXM OM-19; read-out: MIC
# Description: Now, for illustrating the excellent pharmacological effects of the compounds of this invention, the values of MIC (γ/ml.) of the compounds against various bacteria are shown in Table 1, in which the compounds of this invention used are shown by example numbers. (3) Proteus mirabilis IXM OM-19
Consider the following molecules; for each one, report its MIC.
Express your answer in µg/mL, writing the number without its unit.

I would be grateful if you could share the reported MIC for CC(C)(Sc1nnc(SCC2=C(C(=O)O)N3C(=O)[C@@H](NC(=O)[C@H](NC(=O)c4cnccc4O)c4ccccc4)[C@H]3SC2)s1)C(=O)O [Example 22] .
0.39

// returns reported MIC for input Cc1cc(O)c(C(=O)N[C@@H](C(=O)N[C@@H]2C(=O)N3C(C(=O)O)=C(CSc4nnc(CCCC(=O)O)s4)CS[C@H]23)c2ccccc2)cn1 [Example 36]
0.39

Need MIC of CSc1ccc2c(=O)c(C(=O)N[C@@H](C(=O)N[C@@H]3C(=O)N4C(C(=O)O)=C(CSc5nnc(SCC(=O)O)s5)CS[C@H]34)c3ccccc3)c[nH]c2c1 [Example 12] , thanks.
0.39

Requested read-out: MIC. Entry: Cc1cc(O)c(C(=O)N[C@@H](C(=O)N[C@@H]2C(=O)N3C(C(=O)O)=C(CSc4nnc(CC(=O)O)s4)CS[C@H]23)c2ccccc2)cn1 [Example 38]
0.78

Fill blank: measured MIC of the molecule COc1cc(O)ncc1C(=O)N[C@@H](C(=O)N[C@@H]1C(=O)N2C(C(=O)O)=C(CSc3nnc(SCC(=O)O)s3)CS[C@H]12)c1ccccc1 [Example 28] is ____.
6.25

Would you kindly share the measured MIC for Cc1ncc(C(=O)N[C@@H](C(=O)N[C@@H]2C(=O)N3C(C(=O)O)=C(CSc4nnc(SCC(=O)O)s4)CS[C@H]23)c2ccccc2)c(O)n1 [Example 20] ?
0.39

For the molecule O=C(O)CSc1nnc(SCC2=C(C(=O)O)N3C(=O)[C@@H](NC(=O)[C@H](NC(=O)c4csccc4=O)c4ccc(O)cc4)[C@H]3SC2)s1 [Example 31] , what MIC is on record?
0.39

I would be grateful if you could share the reported MIC for O=C(O)CCC(=O)Nc1nnc(SCC2=C(C(=O)O)N3C(=O)[C@@H](NC(=O)[C@H](NC(=O)c4csccc4=O)c4ccccc4)[C@H]3SC2)s1 [Example 1] .
0.78
